Experiment: Human HepG2 cell viability assay in 384 well format
Type: toxicity, cell-based
Set-up: dose 125 nL, time 70.5 hour; concentration not given beside the values
Settings: HepG2 cells, read-out: Inhibition
property: cytotoxicity at 70.5 h (%)
Your answer is read as %, so omit the unit and give the number.

INSERT INTO assay_data (molecule, property, result_number) VALUES
  ('Cc1noc(C2CN(Cc3ccc4c(c3)CCO4)C2)n1', 'cytotoxicity at 70.5 h', -11.7);

# query: cytotoxicity at 70.5 h of entry CCS(=O)(=O)N1CCC(n2nc(-c3cc(C)oc3C)ccc2=O)CC1
24.5

Sample CCOCCC(=O)NCC1COc2c(cccc2OC)C1 (centres undefined) — what was its cytotoxicity at 70.5 h?
-4.38

All figures here come from ChEMBL document CHEMBL3507680.
